biological target: SRC (Homo sapiens); assay: Inhibition of a panel of kinases, in vitro HotSpot kinase assay: SRC; format: biochemical; conditions: D-compounds panel data; 1 μM ATP
Sequence (P12931 whole entry): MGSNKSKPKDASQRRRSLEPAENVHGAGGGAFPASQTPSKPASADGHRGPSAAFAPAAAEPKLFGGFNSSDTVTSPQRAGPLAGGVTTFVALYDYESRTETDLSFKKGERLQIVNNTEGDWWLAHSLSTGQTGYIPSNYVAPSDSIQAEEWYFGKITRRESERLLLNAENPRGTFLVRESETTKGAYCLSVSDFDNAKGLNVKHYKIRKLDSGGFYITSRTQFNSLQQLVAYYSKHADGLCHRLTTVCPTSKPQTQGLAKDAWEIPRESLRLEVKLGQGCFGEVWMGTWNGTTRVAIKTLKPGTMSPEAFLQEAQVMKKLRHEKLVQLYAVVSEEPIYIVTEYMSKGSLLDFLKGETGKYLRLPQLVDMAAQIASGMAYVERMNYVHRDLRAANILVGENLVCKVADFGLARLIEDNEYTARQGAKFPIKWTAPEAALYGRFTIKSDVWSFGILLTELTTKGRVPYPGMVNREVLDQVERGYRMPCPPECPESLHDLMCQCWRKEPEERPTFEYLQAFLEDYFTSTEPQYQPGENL
Known IC50 of a selection of compounds

Some solved entries appear below for comparison.
[
  {
    "Compound": "CN(C)C(=O)N[C@H]1CCCN(c2cnc(C(N)=O)c(Nc3ccc4ncccc4c3)n2)[C@@H]1CO (racemic) [Example D-64]",
    "IC50": "> 10 µM"
  },
  {
    "Compound": "Cc1cc(Nc2nc(N3CCC[C@H](NC(=O)N(C)C)[C@@H]3CO)cnc2C(N)=O)sn1 [Example D-68]",
    "IC50": "1 to 10 µM"
  },
  {
    "Compound": "C[C@@H]1[C@H](NC(=O)c2ccc(C3CC3)cc2F)CCCN1c1cnc(C(N)=O)c(Nc2ccc(N3CCN(C)CC3=O)cc2)n1 [Example D-10]",
    "IC50": "0.1 to 1 µM"
  },
  {
    "Compound": "C[C@H]1CC[C@@H](NC(=O)N(C)C)CN1c1cnc(C(N)=O)c(Nc2cnn(C)c2)n1 [Example D-152]",
    "IC50": "0.1 to 1 µM"
  },
  {
    "Compound": "Cc1cccc(-c2cnc(C3CCCN(c4cnc(C(N)=O)c(Nc5cnn(C)c5)n4)C3)[nH]2)c1 [Example D-148]",
    "IC50": "0.1 to 1 µM"
  }
]

query: For the compound C[C@@H]1[C@H](NC(=O)c2ccc(C3CC3)cc2F)CCCN1c1cnc(C(N)=O)c(Nc2ccc(S(=O)(=O)N3CCN(C)CC3)cc2)n1 [Example D-130] , give its measured IC50 value.
result: 0.1 to 1 µM

query: For the compound COc1cc(C(=O)N[C@@H]2CCCN(c3cnc(C(N)=O)c(Nc4cnn(C)c4)n3)[C@@H]2C)ccc1C1CC1 [Example D-231] , give its measured IC50 value.
result: 0.01 to 0.1 µM
